Could you please report measured half-life for the items listed next?
assay: Pharmacokinetic parameters; assay type: in vivo; conditions: in vivo; unit and species not given; read-out: Pharmacokinetic Parameters t1/2 (converted)
Answer shape: numeric part, then the unit.

# COMPOUND, OBSERVED_VALUE
rows = [
    ("O=C(c1ccccc1)c1ccccc1C(=O)N(CCc1c[nH]cn1)C(Cc1ccccc1)C(=O)NCC(c1ccccc1)c1ccccc1 (racemic)", "3.6 h"),
    ("N#Cc1cccc(C(C(=O)NCC(c2ccccc2)c2ccccc2)N(CCc2c[nH]cn2)C(=O)c2ccccc2C(=O)c2ccccc2)c1 (stereo not drawn)", "2.3 h"),
]

# context switch: different compound, same half-life
Please look at this compound and report its half-life: `Cc1nn(-c2nccc(-c3ccccn3)n2)c(C)c1SCc1ccc(Cl)cc1`
2.3 h

====

Tested on: L929 cells
Experiment: TNF High Throughput Screen (TNF-α driven apoptosis assay)
Assay type: cell-based, mouse
Details: Mus musculus, compound at 1 μM, human TNF-α + actinomycin D, read-out: TNFα % Inh. @ 1 μM
From the text: Description of Table V: The results shown in Table V were obtained using the TNF-α assays performed as described in the protocols entitled “Method for TNF High Throughput Screen” and “Method for VCAM High Throughput Screen”, which are detailed below. These assays measure a cellular response to TNF-α stimulation, and the data published in the table are expressed as percentage inhibitions. […] • 1. […] Shake plates on orbital shaker and read at 595 nm on plate reader. […]
Could you please report measured inhibition at 1 µM for the items listed next?
Answers are plain numbers, in %.

Solved entries:
# MOLECULE, inhibition at 1 µM (%)
rows = [
    ("N#Cc1cccc(C(C(=O)NCC(c2ccccc2)c2ccccc2)N(CCc2c[nH]cn2)C(=O)c2cccc(F)c2)c1 (stereo not shown)", 56),
    ("CCCCc1ccc(C(=O)N(CCc2c[nH]cn2)C(C(=O)NCCC(c2ccccc2)c2ccccc2)c2ccccc2)cc1 (stereo not shown)", 52),
    ("O=C(c1ccccc1)c1ccccc1C(=O)N(CCc1c[nH]cn1)C(C(=O)NCC(c1ccccc1)c1ccccc1)C(c1ccccc1)c1ccccc1 (stereo not shown)", 59),
    ("N#Cc1cccc(C(C(=O)NCC(c2ccccc2)c2ccccc2)N(CCc2c[nH]cn2)C(=O)c2c[nH]nc2N)c1 (stereo not shown)", 50),
    ("CN(C)CCCN(C(=O)c1ccccc1C(=O)c1ccccc1)C(C(=O)NC(C)(C)CC(C)(C)C)c1cccc(C#N)c1 (stereo not shown)", 55),
    ("N#Cc1cccc(C(C(=O)NCC(c2ccccc2)c2ccccc2)N(CCc2c[nH]cn2)C(=O)C(O)Cc2c[nH]c3ccccc23)c1 (stereo not shown)", 55),
    ("N#Cc1cccc(C(C(=O)NCCC(c2ccccc2)c2ccccc2)N(CCc2c[nH]cn2)C(=O)Cc2ccc3ccccc3c2)c1 (stereo not shown)", 52),
    ("O=C(NCC(c1ccccc1)c1ccccc1)C(c1ccccc1)N(CCc1c[nH]cn1)C(=O)c1cccc2c1-c1ccccc1C2 (stereo not shown)", 50),
    ("COc1ccc(CCNC(=O)C(c2cccc(C#N)c2)N(CCc2c[nH]cn2)C(=O)CCCc2c[nH]c3ccccc23)cc1 (stereo not shown)", 56),
    ("COc1ccc(CCNC(=O)C(c2cccc(C#N)c2)N(CCc2c[nH]cn2)C(=O)Cc2c(C)[nH]c3ccccc23)cc1 (stereo not shown)", 67),
]

Hi there! I need inhibition at 1 µM for each item below, if you can.
1. COc1ccc(CCNC(=O)C(c2cccc(C#N)c2)N(CCc2c[nH]cn2)C(=O)Cc2c[nH]c3ccccc23)cc1 (stereo not shown)
2. O=C(c1ccc(Cl)cc1)c1ccccc1C(=O)N(CCCn1ccnc1)C(C(=O)NCC(c1ccccc1)c1ccccc1)c1ccccc1 (stereo not shown)

[54, 51]

Answer briefly: inhibition at 1 µM recorded on L929 cells for N#Cc1cccc(C(C(=O)NCC(c2ccccc2)c2ccccc2)N(CCc2c[nH]cn2)C(=O)CCCCc2ccccc2)c1 (stereo not shown)
50

====

Could you please report measured inhibition at 1 µM for the items listed next?
test system: L929 cells; assay: TNF High Throughput Screen (TNF-α driven apoptosis assay); type: cell-based, mouse; conditions: Mus musculus, compound at 1 μM, human TNF-α + actinomycin D, read-out: TNFα % Inh. @ 1 μM

Solved entries:
# COMPOUND, SYSTEM, PROPERTY_LABEL, OBSERVED_VALUE
records = [
    ("N#Cc1cccc(C(C(=O)NCC(c2ccccc2)c2ccccc2)N(CCc2c[nH]cn2)C(=O)CCCc2c[nH]c3ccccc23)c1 (stereo not drawn) [Compound 84]", "L929 cells", "inhibition at 1 µM", "52%"),
    ("COc1cccc(C(=O)N(CCc2c[nH]cn2)C(C(=O)NCC(c2ccccc2)c2ccccc2)c2cccc(C#N)c2)c1 (stereo not drawn) [Compound 86]", "L929 cells", "inhibition at 1 µM", "53%"),
]

Please look at this compound and report its inhibition at 1 µM: N#Cc1cccc(C(C(=O)NC(c2ccccc2)c2ccccc2)N(CCc2c[nH]cn2)C(=O)c2ccccc2Oc2ccccc2)c1 (stereo not drawn) [Compound 89]
56%

====

Could you please report measured inhibition at 1 µM for the items listed next?
system: L929 cells; assay: TNF High Throughput Screen (TNF-α driven apoptosis assay); format: cell-based, mouse; conditions: Mus musculus, compound at 1 μM, human TNF-α + actinomycin D, read-out: TNFα % Inh. @ 1 μM
One number for each entry, in %.

Solved entries:
# MOLECULE, MEASURE_UNIT, OBSERVED_VALUE
data = [
    ("N#Cc1cccc(C(C(=O)NC(c2ccccc2)c2ccccc2)N(CCc2c[nH]cn2)C(=O)C(O)c2ccccc2)c1 (stereo not drawn) [Compound 87]", "%", 50),
    ("N#Cc1cccc(C(C(=O)NCCC(c2ccccc2)c2ccccc2)N(CCc2c[nH]cn2)C(=O)CCC2CCCCC2)c1 (stereo not drawn) [Compound 69]", "%", 61),
    ("N#Cc1cccc(C(C(=O)NCC(c2ccccc2)c2ccccc2)N(CCc2c[nH]cn2)C(=O)Cc2c[nH]c3ccc(Br)cc23)c1 (stereo not drawn) [Compound 85]", "%", 52),
    ("N#Cc1cccc(C(C(=O)NC(c2ccccc2)c2ccccc2)N(CCc2c[nH]cn2)C(=O)c2ccccc2-c2ccccc2)c1 (stereo not drawn) [Compound 88]", "%", 53),
]

Hi there! I need inhibition at 1 µM for each item below, if you can.
1. COc1ccc(Oc2cccc(C(C(=O)NCc3cc(OC)c(OC)c(OC)c3)N(C(=O)CC(c3ccccc3)c3ccccc3)c3ccccc3C(N)=O)c2)cc1 (stereo not drawn) [Compound 57]
2. COc1ccc(CCNC(=O)C(c2cccc(C#N)c2)N(CCc2c[nH]cn2)C(=O)c2cccc(Cl)c2)cc1 (stereo not drawn) [Compound 79]

1. 56
2. 62

====

system: L929 cells; assay: TNF High Throughput Screen (TNF-α driven apoptosis assay); type: cell-based, mouse; conditions: Mus musculus, compound at 1 μM, human TNF-α + actinomycin D, read-out: TNFα % Inh. @ 1 μM
PROPERTY_LABEL: inhibition at 1 µM (%)
One number for each entry, in %.

Solved entries:
# MOLECULE, inhibition at 1 µM, %
measured = [
    ("COc1cccc(C(=O)N(CCc2c[nH]cn2)C(C(=O)NCCC(c2ccccc2)c2ccccc2)c2cccc(C#N)c2)c1 (stereo not drawn)", 58),
    ("COc1ccc(CCNC(=O)C(c2cccc(C#N)c2)N(CCc2c[nH]cn2)C(=O)c2cccn2C)cc1 (stereo not drawn)", 57),
]

# context switch: different molecule, same inhibition at 1 µM
Please look at this molecule and report its inhibition at 1 µM: N#Cc1cccc(C(C(=O)NCC(c2ccccc2)c2ccccc2)N(CCc2c[nH]cn2)C(=O)c2cnc3ccccc3n2)c1 (stereo not drawn)
53

====

tested on: L929 cells; assay: TNF High Throughput Screen (TNF-α driven apoptosis assay); type: cell-based, mouse; conditions: Mus musculus, compound at 1 μM, human TNF-α + actinomycin D, read-out: TNFα % Inh. @ 1 μM
PROPERTY_LABEL: inhibition at 1 µM (%)
One number for each entry, in %.

Solved entries:
# COMPOUND, MEASURE_UNIT, inhibition at 1 µM
data = [
    ("N#Cc1cccc(C(C(=O)NC(c2ccccc2)c2ccccc2)N(CCc2c[nH]cn2)C(=O)c2cccs2)c1 (stereo not shown)", "%", 51),
    ("COc1ccc(CCNC(=O)C(c2cccc(C#N)c2)N(CCc2c[nH]cn2)C(=O)C(C)C)cc1 (stereo not shown)", "%", 52),
    ("N#Cc1cccc(C(C(=O)NC(Cc2ccccc2)c2ccccc2)N(CCc2c[nH]cn2)C(=O)c2ccccc2C(=O)c2ccc(Cl)cc2)c1 (stereo not shown)", "%", 63),
    ("COc1ccc(CCNC(=O)C(c2cccc(C#N)c2)N(CCc2c[nH]cn2)C(=O)CCC(C)=O)cc1 (stereo not shown)", "%", 76),
    ("COc1ccc(CCNC(=O)C(c2cccc(C#N)c2)N(CCc2c[nH]cn2)C(=O)c2cnc3ccccc3n2)cc1 (stereo not shown)", "%", 55),
    ("COc1ccc(CCNC(=O)C(c2cccc(C#N)c2)N(CCc2c[nH]cn2)C(=O)CCC2CCCC2)cc1 (stereo not shown)", "%", 57),
]

Answer briefly: inhibition at 1 µM recorded on L929 cells for COc1cccc(C(=O)N(CCc2c[nH]cn2)C(C(=O)NCCC(c2ccccc2)c2ccccc2)c2cccc(C#N)c2)c1OC (stereo not shown)
51
